Entry source: PubChem BioAssay

# Measurement protocol: reversal of MRP1-mediated doxorubicin resistance, pilot screen, H69AR cells, doxorubicin co-treatment (AID 601)
# Reported conditions: H69AR cells + 2 uM doxorubicin, CellTiter-Glo, 72 h; measured here: viability with 2 uM doxorubicin; at 10 µM; stronger effect = lower value
viability values, listed per item
# output: bare number, implied unit %

Study these solved cases before continuing.
O=C1NC2c3ccccc3C(=O)N2c2c1cnn2-c1ccccc1 (stereo not given)
86
Cc1cc(C)n(C(=O)C23CC4CC(CC(C4)C2)C3)n1
96.1

Q: Any idea what viability was measured for CCOC(=O)c1ccccc1NC1c2ccccc2C(=O)N1C1CCN(C(=O)OCC)CC1 (stereo not given) ?
A: 42.9

Q: Any idea what viability was measured for COc1cc(NS(=O)(=O)c2ccc(N)cc2)nc(OC)n1 ?
A: 88.4

Q: Any idea what viability was measured for CSc1oc(-c2ccccc2)nc1S(=O)(=O)c1ccc(F)cc1 ?
A: 82.1
